Entries annotated with measured cell viability
test system: Caco-2; assay: cell viability relative to DMSO; higher = less toxic; details: 72 h; 100 nM

{"COMPOUND": "CC(C)c1ccc(NC(=O)Cn2cnc3c2c(=O)n(C)c(=O)n3C)cc1", "UNIT STRING": "%", "cell viability": 92.5}
{"COMPOUND": "OC[C@@H](O)[C@@H](O)CO [erythritol]", "UNIT STRING": "%", "cell viability": 97.9}
{"COMPOUND": "CCCCCCCCCCCCCCCC[n+]1ccn(Cc2ccccc2)c1C [NH125]", "UNIT STRING": "%", "cell viability": 97}
{"COMPOUND": "c1ccc(CNCc2ccc(CN3CCCNCCNCCCNCC3)cc2)nc1 [AMD-3465]", "UNIT STRING": "%", "cell viability": 102}
{"COMPOUND": "Cc1ccc(S(=O)(=O)Nc2nc3ccccc3nc2Nc2ccc3nsnc3c2)cc1 [XL147]", "UNIT STRING": "%", "cell viability": 98.6}
{"COMPOUND": "CO[C@H]1/C=C/O[C@@]2(C)Oc3c(C)c(O)c4c(O)c(cc(O)c4c3C2=O)NC(=O)/C(C)=C\\C=C\\[C@H](C)[C@H](O)[C@@H](C)[C@@H](O)[C@@H](C)[C@H](OC(C)=O)[C@@H]1C [rifamycin-sv]", "UNIT STRING": "%", "cell viability": 103}
{"COMPOUND": "CCC(=O)OCN1C(=O)C=CC1=O [MIRA-1]", "UNIT STRING": "%", "cell viability": 87.8}
{"COMPOUND": "Nc1ccc([As](=O)(O)O)cc1 [arsanilic-acid]", "UNIT STRING": "%", "cell viability": 86.6}
{"COMPOUND": "COc1ccccc1CC(=N)N1C[C@@H]2C(=O)CCC(c3ccccc3)(c3ccccc3)[C@@H]2C1", "UNIT STRING": "%", "cell viability": 95.3}

###

tested on: HepG2; experiment: drug sensitivity score (DSS) for viability; higher = more toxic; extreme values may be limits of the assay; conditions: 72 h
drug sensitivity score for assorted compounds

{"COMPOUND": "c1ccc(C[C@H](c2ccccc2)N2CCCCC2)cc1 (racemic) [1-(1,2-diphenylethyl)piperidine-(+/-)]", "drug sensitivity score": 0.1}
{"COMPOUND": "CN1CCC(COc2cnc(-c3cccc(Cn4nc(-c5cccc(C#N)c5)ccc4=O)c3)nc2)CC1", "drug sensitivity score": 0}
{"COMPOUND": "O=S(=O)(c1ccccc1)N(CC(F)(F)F)c1ccc(C(O)(C(F)(F)F)C(F)(F)F)cc1", "drug sensitivity score": 1.8}
{"COMPOUND": "Nc1ncn([C@@H]2O[C@H](CO)[C@@H](O)[C@H]2O)c(=O)n1 [azacitidine]", "drug sensitivity score": 3.1}
{"COMPOUND": "Cc1ccc(S(=O)(=O)Nc2nc3ccccc3nc2Nc2ccc3nsnc3c2)cc1 [XL147]", "drug sensitivity score": 0}
{"COMPOUND": "Cc1ccc(Cl)cc1N(CC(=O)Nc1c(F)cccc1F)S(C)(=O)=O [FPH1-(BRD-6125)]", "drug sensitivity score": 0}
{"COMPOUND": "Cc1ccc(Sc2cncc3sc(C(N)=O)cc23)cc1", "drug sensitivity score": 1.6}
{"COMPOUND": "COc1ccc(CN2CCN(C(c3ccc(F)cc3)c3ccc(F)cc3)CC2)c(OC)c1OC [lomerizine]", "drug sensitivity score": 0}
{"COMPOUND": "CCOC(=O)C1=C[C@]2(CC)CCCN3CCc4c(n1c1ccccc41)[C@@H]32 [vinpocetine]", "drug sensitivity score": 0}
{"COMPOUND": "CN(C)CCCSC(=N)N [dimaprit]", "drug sensitivity score": 0}
{"COMPOUND": "Cc1ccc(CC2(O)CCN(CCOc3ccc(O)cc3)CC2)cc1", "drug sensitivity score": 1}
{"COMPOUND": "CC(Cc1ccccc1)NCCC(c1ccccc1)c1ccccc1 (stereo not drawn) [prenylamine]", "drug sensitivity score": 1.3}
{"COMPOUND": "CCC(=O)O[C@@H]1CC(=O)O[C@H](C)C/C=C/C=C/[C@H](O)[C@H](C)C[C@H](CC=O)[C@H](O[C@@H]2O[C@H](C)[C@@H](O[C@H]3C[C@@](C)(O)[C@@H](OC(=O)CC)[C@H](C)O3)[C@H](N(C)C)[C@H]2O)[C@H]1OC [midecamycin]", "drug sensitivity score": 1.3}
{"COMPOUND": "Nc1ccncc1N [amifampridine]", "drug sensitivity score": 0}
{"COMPOUND": "C[C@@H](N)[C@H]1CC[C@H](C(=O)Nc2ccncc2)CC1", "drug sensitivity score": 0}
{"COMPOUND": "O=C(O)c1ccc2nc(-c3cc(Cl)cc(Cl)c3)oc2c1 [tafamidis-meglumine]", "drug sensitivity score": 0}
{"COMPOUND": "COCCN1CCN(Cc2ccc(-c3n[nH]c4c3C(=O)c3c(NC(=O)NN5CCOCC5)cccc3-4)cc2)CC1", "drug sensitivity score": 21.9}
{"COMPOUND": "CCN(CC)CCOC(=O)C(c1ccccc1)C1CCCCC1 (stereo not drawn) [drofenine]", "drug sensitivity score": 2.6}
